- EXPERIMENTAL DETAILS: Competitive inhibition of goat liver alkaline phosphatase assessed as residual activity using p-nitrophenyl phosphate as substrate by Lineweaver-Burk plot analysis
- Design: species or system Capra hircus
Mark each entry criterion met if its Ki sits below 700 µM, and criterion not met for all others.

Some solved entries appear below for comparison.
INSERT INTO results (line_notation, discrete_label) VALUES
  ('O=C1/C(=C/c2ccc(Br)cc2)CCC/C1=C\c1ccc(Br)cc1', 'criterion met'),
  ('O=C1/C(=C/c2ccc([N+](=O)[O-])cc2)CCC/C1=C\c1ccc([N+](=O)[O-])cc1', 'criterion met'),
  ('O=C1/C(=C/c2ccc(Cl)cc2)CCC/C1=C\c1ccc(Cl)cc1', 'criterion met'),
  ('CN(C)c1ccc(/C=C2\CCC/C(=C\c3ccc(N(C)C)cc3)C2=O)cc1', 'criterion met'),
  ('COc1ccc(/C=C2\CCC/C(=C\c3ccc(OC)cc3)C2=O)cc1', 'criterion met'),
  ('O=C1/C(=C/c2ccccc2)CCC/C1=C\c1ccccc1', 'criterion met');

Lab log: compare recorded Ki with 700 µM; is it strictly lower for `O=C1/C(=C/c2ccc(F)cc2)CCC/C1=C\c1ccc(F)cc1` ? criterion not met

Please determine if `c1ccc([C@H]2CN3CCSC3=N2)cc1` is below 700 µM in terms of Ki. criterion not met

###

- Species on record: Capra hircus
- EXPERIMENTAL DETAILS: Inhibition of goat liver alkaline phosphatase assessed as residual activity using p-nitrophenyl phosphate as substrate at 1 mM after 30 mins relative to control
Please note: Y applies when Activity is 40% or greater, and N applies otherwise.

INSERT INTO assay_data (line_notation, discrete_label) VALUES
  ('c1ccc([C@H]2CN3CCSC3=N2)cc1', 'Y'),
  ('COc1ccc(/C=C2\CCC/C(=C\c3ccc(OC)cc3)C2=O)cc1', 'N'),
  ('Cc1ccc(/C=C2\CCC/C(=C\c3ccc(C)cc3)C2=O)cc1', 'Y'),
  ('O=C1/C(=C/c2ccccc2)CCC/C1=C\c1ccccc1', 'Y'),
  ('O=C1/C(=C/C=C/c2ccccc2)CCC/C1=C\C=C\c1ccccc1', 'N'),
  ('O=C1/C(=C/c2ccc(F)cc2)CCC/C1=C\c1ccc(F)cc1', 'Y'),
  ('O=C1/C(=C/c2ccc(Br)cc2)CCC/C1=C\c1ccc(Br)cc1', 'Y'),
  ('O=C1/C(=C/c2ccc([N+](=O)[O-])cc2)CCC/C1=C\c1ccc([N+](=O)[O-])cc1', 'N');

Consider now this further compound.
Entry `O=C1/C(=C/c2ccc(Cl)cc2)CCC/C1=C\c1ccc(Cl)cc1` : is its Activity no less than 40%? Y
